- system-tested: Phospholipase D2 (Homo sapiens) + Phospholipase D2 (Homo sapiens) (UniProt O14939+O14939)
- Sequence (O14939 whole entry, looked up): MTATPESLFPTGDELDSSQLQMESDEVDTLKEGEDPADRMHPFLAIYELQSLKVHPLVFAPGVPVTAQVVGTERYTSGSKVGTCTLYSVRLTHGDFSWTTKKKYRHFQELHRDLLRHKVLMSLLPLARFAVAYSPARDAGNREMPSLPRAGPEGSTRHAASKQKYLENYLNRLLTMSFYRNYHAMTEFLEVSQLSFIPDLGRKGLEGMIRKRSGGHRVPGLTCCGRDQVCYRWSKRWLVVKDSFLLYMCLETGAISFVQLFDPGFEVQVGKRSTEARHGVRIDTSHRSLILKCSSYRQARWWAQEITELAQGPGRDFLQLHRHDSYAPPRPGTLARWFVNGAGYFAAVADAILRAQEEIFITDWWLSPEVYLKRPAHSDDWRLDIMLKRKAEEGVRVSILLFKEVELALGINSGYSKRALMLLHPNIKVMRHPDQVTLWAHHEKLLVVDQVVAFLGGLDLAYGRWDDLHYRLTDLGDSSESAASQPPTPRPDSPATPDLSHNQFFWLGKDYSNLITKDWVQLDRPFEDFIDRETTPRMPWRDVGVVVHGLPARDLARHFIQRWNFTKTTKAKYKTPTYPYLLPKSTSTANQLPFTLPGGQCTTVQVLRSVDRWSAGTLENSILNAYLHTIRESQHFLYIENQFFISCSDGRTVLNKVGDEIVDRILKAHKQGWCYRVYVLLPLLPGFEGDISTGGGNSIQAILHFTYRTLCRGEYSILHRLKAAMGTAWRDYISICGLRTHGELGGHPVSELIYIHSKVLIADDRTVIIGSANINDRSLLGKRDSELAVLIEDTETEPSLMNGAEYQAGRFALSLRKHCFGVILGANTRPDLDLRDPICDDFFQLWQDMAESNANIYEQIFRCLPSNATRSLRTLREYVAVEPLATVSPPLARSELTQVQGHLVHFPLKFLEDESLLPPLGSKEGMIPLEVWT
- Sequence (O14939 whole entry, looked up): as above
- assay-remarks: cellular PLD2 inhibitors, cell-based, HEK293 overexpressing PLD2, Lib32, assay 1B (AID 624009)
- condition: HEK293 cells overexpressing PLD2, cellular PLD activity; stronger effect = lower value; concentration not given here
measure-name: remaining activity (%)
Answer in %, number only, no unit symbol.

QUERY: Looking for the measured remaining activity of "O=C(c1ccc(F)cc1)N(CCN1CCC2(CC1)C(=O)NCN2c1cccc(F)c1)C(=O)c1ccc(F)cc1" , can you help?
RESULT: 102

QUERY: Looking for the measured remaining activity of "O=C(Cc1ccc(F)cc1)NCCN1CCC2(CC1)C(=O)NCN2c1cccc(F)c1" , can you help?
RESULT: 92.5

QUERY: Looking for the measured remaining activity of "O=C(NCCN1CCC2(CC1)C(=O)NCN2c1cccc(F)c1)c1ccc(F)cc1" , can you help?
RESULT: 59.4

QUERY: Looking for the measured remaining activity of "O=C(NCCN1CCC2(CC1)C(=O)NCN2c1cccc(F)c1)c1cccc([N+](=O)[O-])c1" , can you help?
RESULT: 71

QUERY: Looking for the measured remaining activity of "O=C(NCCN1CCC2(CC1)C(=O)NCN2c1cccc(F)c1)c1ccc(F)cc1F" , can you help?
RESULT: 111

QUERY: Looking for the measured remaining activity of "O=C(NCCN1CCC2(CC1)C(=O)NCN2c1cccc(F)c1)c1ccc(Br)cc1" , can you help?
RESULT: 39.2

QUERY: Looking for the measured remaining activity of "C[C@@H](CN1CCC2(CC1)C(=O)NCN2c1cccc(F)c1)NC(=O)c1ccc(F)cc1F" , can you help?
RESULT: 48.2

QUERY: Looking for the measured remaining activity of "C[C@@H](CN1CCC2(CC1)C(=O)NCN2c1cccc(F)c1)NC(=O)c1cccc([N+](=O)[O-])c1" , can you help?
RESULT: 74.9

QUERY: Looking for the measured remaining activity of "C[C@@H](CN1CCC2(CC1)C(=O)NCN2c1cccc(F)c1)NC(=O)c1ccc(F)cc1" , can you help?
RESULT: 33.3

QUERY: Looking for the measured remaining activity of "C[C@@H](CN1CCC2(CC1)C(=O)NCN2c1cccc(F)c1)NC(=O)c1ccc(F)c(F)c1" , can you help?
RESULT: 22.8

QUERY: Looking for the measured remaining activity of "O=C(NCCN1CCC2(CC1)C(=O)NCN2c1cccc(F)c1)c1ccccn1" , can you help?
RESULT: 99.8

QUERY: Looking for the measured remaining activity of "C[C@@H](CN1CCC2(CC1)C(=O)NCN2c1cccc(F)c1)NC(=O)c1ccc(Cl)cc1Cl" , can you help?
RESULT: 81.5

QUERY: Looking for the measured remaining activity of "C[C@@H](CN1CCC2(CC1)C(=O)NCN2c1cccc(F)c1)NC(=O)c1cccc2ccccc12" , can you help?
RESULT: 81

QUERY: Looking for the measured remaining activity of "O=C(NCCN1CCC2(CC1)C(=O)NCN2c1cccc(F)c1)c1ccccc1I" , can you help?
RESULT: 111

QUERY: Looking for the measured remaining activity of "O=C(NCCN1CCC2(CC1)C(=O)NCN2c1cccc(F)c1)c1c(F)ccc(F)c1Cl" , can you help?
RESULT: 85

QUERY: Looking for the measured remaining activity of "C[C@@H](CN1CCC2(CC1)C(=O)NCN2c1cccc(F)c1)NC(=O)c1ccc(Br)cc1" , can you help?
RESULT: 26.6

QUERY: Looking for the measured remaining activity of "C[C@@H](CN1CCC2(CC1)C(=O)NCN2c1cccc(F)c1)NC(=O)c1c(F)ccc(F)c1Cl" , can you help?
RESULT: 94.8

QUERY: Looking for the measured remaining activity of "O=C(NCCN1CCC2(CC1)C(=O)NCN2c1cccc(F)c1)c1cccc2c1OCO2" , can you help?
RESULT: 83.3

QUERY: Looking for the measured remaining activity of "COc1cc(C(=O)NCCN2CCC3(CC2)C(=O)NCN3c2cccc(F)c2)cc(OC)c1OC" , can you help?
RESULT: 46.7

Data origin: PubChem BioAssay AID624009
